From: patent US20240309070A1

Target: T1, VV B5 monomer protein (Wyeth Vaccinia strain B5 with C-terminal AVI tag and HIS6 tag) (Vaccinia virus, Wyeth strain, UniProt O57254 18-279)
T1 construct: also called B5 protein; VV B5 protein
Experiment: BLI (Octet), antibody on AHC sensor, B5 monomer analyte
kon for assorted binders
# value in M⁻¹ s⁻¹; strip the unit string

{"binder": "A048-H4L2 (antibody, V domains shown) VH: EVQLLESGGGLVQPGGSLRLSCAASGFSFSSSYYMCWVRQAPGKGLEWIACIYTSSGSAYYADSVKGRFTISRTSSTTVTLQMNSLRAEDTAVYYCVRNAVGSSYYLYLWGQGTLVTVSS VL: AQVLTQSPSTLSASVGDRVTITCQASQSVAGNNYLSWYQQKPGKAPKLLIYSVSTLASGVPSRFSGSGSGTEFTLTISSLQPDDFATYYCQGYYNDGIWAFGQGTKVEIK", "assay_readout": "kon", "recorded_result": 62400}
{"binder": "A048-H1L2 (antibody, V domains shown) VH: EVQLLESGGGLVQPGGSLRLSCAASGFSFSSSYYMCWVRQAPGKGLEWIACIYTSSGSAYYANWAKGRFTISRDNSKNTLYLQMNSLRAEDTAVYYCVRNAVGSSYYLYLWGQGTLVTVSS VL: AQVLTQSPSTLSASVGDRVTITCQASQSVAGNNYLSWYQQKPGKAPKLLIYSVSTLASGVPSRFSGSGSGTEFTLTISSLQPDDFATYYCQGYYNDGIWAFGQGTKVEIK", "assay_readout": "kon", "recorded_result": 78600}
{"binder": "A048-H2L1 (antibody, V domains shown) VH: EVQLLESGGGLVQPGGSLRLSCAASGFSFSSSYYMCWVRQAPGKGLEWIACIYTSSGSAYYANWAKGRFTISRTSSTTVTLQMNSLRAEDTAVYYCVRNAVGSSYYLYLWGQGTLVTVSS VL: DIQMTQSPSTLSASVGDRVTITCQASQSVAGNNYLSWYQQKPGKAPKLLIYSVSTLASGVPSRFSGSGSGTEFTLTISSLQPDDFATYYCQGYYNDGIWAFGQGTKVEIK", "assay_readout": "kon", "recorded_result": 93000}
{"binder": "A048-H4L4 (antibody, V domains shown) VH: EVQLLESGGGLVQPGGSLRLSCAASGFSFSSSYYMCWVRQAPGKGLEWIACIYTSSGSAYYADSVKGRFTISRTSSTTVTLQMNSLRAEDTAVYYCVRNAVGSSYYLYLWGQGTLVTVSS VL: AQVLTQSPSSLSASVGDRVTITCQASQSVAGNNYLSWYQQKPGKVPKLLIYSVSTLASGVPSRFSGSGSGTDFTLTISSLQPEDVATYYCQGYYNDGIWAFGQGTKVEIK", "assay_readout": "kon", "recorded_result": 57000}
{"binder": "A048-H3L1 (antibody, V domains shown) VH: EVQLLESGGGLVQPGGSLRLSCAASGFSFSSSYYMCWVRQAPGKGLEWIACIYTSSGSAYYADSVKGRFTISRDNSKNTLYLQMNSLRAEDTAVYYCVRNAVGSSYYLYLWGQGTLVTVSS VL: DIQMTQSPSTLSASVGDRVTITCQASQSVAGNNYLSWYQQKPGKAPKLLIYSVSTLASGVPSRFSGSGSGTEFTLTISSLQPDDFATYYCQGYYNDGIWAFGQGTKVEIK", "assay_readout": "kon", "recorded_result": 107000}

Q. Using the record for A048-H3L4 (antibody, V domains shown) VH: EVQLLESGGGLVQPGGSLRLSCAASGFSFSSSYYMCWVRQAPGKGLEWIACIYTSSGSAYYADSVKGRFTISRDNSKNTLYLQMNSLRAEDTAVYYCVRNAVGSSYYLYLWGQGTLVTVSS VL: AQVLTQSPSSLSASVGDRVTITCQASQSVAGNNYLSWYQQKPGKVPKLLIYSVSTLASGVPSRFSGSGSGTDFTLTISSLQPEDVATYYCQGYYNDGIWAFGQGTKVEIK , report its kon.
A. 84100

Q. kon lookup needed for A048 parental (antibody, V domains shown, also called A048 rabbit parental antibody; A048 parental anti-B5 hIgG1) VH: QEQLEESGGGLVKPEGSLTLTCTASGFSFSSSYYMCWVRQAPGRGLEWIACIYTSSGSAYYANWAKGRFTISRTSSTTVTLQMTRLTAADTATYFCVRNAVGSSYYLYLWGPGTLVTVSS VL: AQVLTQTPSPVSAAVGGTVTISCQASQSVAGNNYLSWYQQKPGQPPNLLIYSVSTLASGVPSRFKGSGSGTQFTLTISDLECDDAATYYCQGYYNDGIWAFGGGTEVVVK , thanks.
A. 62400

Q. Form field: reported kon of A048-H1L4 (antibody, V domains shown) VH: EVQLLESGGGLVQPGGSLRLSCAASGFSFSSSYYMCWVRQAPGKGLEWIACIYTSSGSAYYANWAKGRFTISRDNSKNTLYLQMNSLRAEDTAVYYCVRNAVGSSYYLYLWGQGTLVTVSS VL: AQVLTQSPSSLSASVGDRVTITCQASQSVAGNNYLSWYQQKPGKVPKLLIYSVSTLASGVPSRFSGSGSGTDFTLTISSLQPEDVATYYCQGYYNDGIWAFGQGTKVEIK
A. 79400

Q. GET /values?readout=kon&item= A048-H3L2 (antibody, V domains shown) VH: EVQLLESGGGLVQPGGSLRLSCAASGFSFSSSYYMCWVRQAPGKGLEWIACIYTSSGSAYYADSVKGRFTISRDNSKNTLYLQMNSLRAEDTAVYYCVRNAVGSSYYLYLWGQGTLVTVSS VL: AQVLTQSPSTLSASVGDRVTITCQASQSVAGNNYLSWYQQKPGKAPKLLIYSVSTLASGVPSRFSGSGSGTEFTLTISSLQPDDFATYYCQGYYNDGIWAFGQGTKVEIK
A. 103000

Q. Which measured kon value corresponds to A048-H4L1 (antibody, V domains shown) VH: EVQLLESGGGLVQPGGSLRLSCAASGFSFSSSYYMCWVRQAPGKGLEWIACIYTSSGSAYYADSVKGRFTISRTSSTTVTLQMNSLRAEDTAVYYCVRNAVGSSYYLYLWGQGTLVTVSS VL: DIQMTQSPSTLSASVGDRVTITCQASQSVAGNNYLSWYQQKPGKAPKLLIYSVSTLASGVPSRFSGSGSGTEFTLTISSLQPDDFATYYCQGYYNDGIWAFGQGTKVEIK ?
A. 71000
